The following compounds are shown together with reported drug sensitivity score values.
Test system: CAL-85-1
experiment notes: drug sensitivity score (DSS), CellTox Green (DSS (AUC-based score)); higher = stronger drug effect (viability inhibition or cytotoxicity); extreme values may be limits of the assay
experimental parameters: incubation time: 72 h

Solved entries:
- sample smiles: "CN(C)CCOc1ccc(/C(=C(/CCCl)c2ccccc2)c2ccccc2)cc1"
  result: 0
- sample smiles: "CC(C)C[C@@H](C(=O)N[C@H](C(=O)OC1CCCC1)c1ccccc1)[C@H](O)C(=O)NO"
  result: 21.8
- sample smiles: "COCC[n+]1c2c(n(Cc3cnccn3)c1C)C(=O)c1ccccc1C2=O"
  result: 42.2
- sample smiles: "c1ccc2c(CCNc3ccc(Nc4ccncc4)cc3)c[nH]c2c1"
  result: 0
- sample smiles: "Nc1cc(C(F)(F)F)c(-c2cc(N3CCOCC3)nc(N3CCOCC3)n2)cn1"
  result: 0

# drug sensitivity score measured on CAL-85-1 for item "CCOC(=O)CCNc1cc(N2CCc3ccccc3CC2)nc(-c2ccccn2)n1" = 16.5

drug sensitivity score for CAL-85-1 with input "Cc1[nH]c2ccccc2c1CCNCc1ccc(/C=C/C(=O)NO)cc1" equals 17.3

CAL-85-1 data for "C=C1C[C@@H]2[C@H](CC[C@]3(C)C(=O)CC[C@@H]23)[C@@]2(C)C=CC(=O)C=C12" ; its drug sensitivity score: 1.08

Value (drug sensitivity score, CAL-85-1) for record "CCc1c2c(nc3ccc(OC(=O)N4CCC(N5CCCCC5)CC4)cc13)-c1cc3c(c(=O)n1C2)COC(=O)[C@]3(O)CC" = 0

The compound "COC(=O)c1ccc2c(c1)NC(=O)/C2=C(\Nc1ccc(N(C)C(=O)CN2CCN(C)CC2)cc1)c1ccccc1" , tested on CAL-85-1, showed drug sensitivity score of 0

# "COc1cc(O)c2c(c1)/C=C/C[C@H](O)[C@H](O)C(=O)/C=C\C[C@H](C)OC2=O" with CAL-85-1: drug sensitivity score is 18.5

###

Recorded drug sensitivity score values for a group of compounds are listed next.
Tested on: BT-549
experiment notes: drug sensitivity score (DSS), CellTox Green (DSS (AUC-based score)); higher = stronger drug effect (viability inhibition or cytotoxicity); extreme values may be limits of the assay
experimental parameters: incubation time: 72 h

Some solved cases for reference:
- compound: "CNC(=O)c1ccc(N2C(=S)N(c3ccc(C#N)c(C(F)(F)F)c3)C(=O)C2(C)C)cc1F [Enzalutamide]"
  result: 0
- compound: "CNC(=O)c1cccc(-c2ccc3c(N4CCOC[C@@H]4C)nc(N4CCOC[C@@H]4C)nc3n2)c1"
  result: 0
- compound: "CC(C)C[C@@H](C(=O)N[C@H](C(=O)OC1CCCC1)c1ccccc1)[C@H](O)C(=O)NO"
  result: 9.06
- compound: "COc1cc2c(NC3CCN(C(C)C)CC3)nc(N3CCC(F)(F)CC3)nc2cc1OCCCN1CCCC1"
  result: 0
- compound: "NC(=O)c1ccc(I)c([N+](=O)[O-])c1"
  result: 0
- compound: "CCOC(=O)CCNc1cc(N2CCc3ccccc3CC2)nc(-c2ccccn2)n1"
  result: 7.69
- compound: "COCC1(CO)C(=O)C2CCN1CC2 (stereo not drawn)"
  result: 0

Lab book: drug sensitivity score of "CNC(=O)c1ccc(N2C(=S)N(c3ccc(C#N)c(C(F)(F)F)c3)C(=O)C23CCC3)cc1F" noted as 0

###

Below, each entry is listed with its recorded normalised viability.
System: MDA-MB-453
experiment notes: normalised viability (% of control), CellTiter-Blue; higher = more viable cells (about 100 = DMSO control)
experimental parameters: 10 nM; incubation time: 72 h
// units = %; emit number, no label

- sample smiles: "COc1cc(OC2CCN(C)CC2)ccc1Nc1ncc2c(n1)n(C1CCCC1)c(=O)n2C"
  target under test: "MDA-MB-453"
  recorded number: 88.2
- sample smiles: "Cc1cc(Nc2cc(CN3CCOCC3)c3nc(C)c(Cc4ccc(Cl)cc4F)n3n2)n[nH]1"
  target under test: "MDA-MB-453"
  recorded number: 91.1

Input "c1ccc2c(CCNc3ccc(Nc4ccncc4)cc3)c[nH]c2c1" . Output normalised viability: 96.7

Record summary for "COCC[n+]1c2c(n(Cc3cnccn3)c1C)C(=O)c1ccccc1C2=O" : reported normalised viability = 44.7

molecule "C=C1C[C@@H]2[C@H](CC[C@]3(C)C(=O)CC[C@@H]23)[C@@]2(C)C=CC(=O)C=C12" , normalised viability observed: 102

Lab note: "CN(C)c1nc(N(C)C)nc(N(C)C)n1" gave normalised viability of 97.5

Entry "O=C(Nc1cccnc1)N1CCC(Cc2cccc(Oc3ccc(C(F)(F)F)cn3)c2)CC1" — recorded normalised viability = 105

Note to self: normalised viability recorded for "CC(C)C[C@@H](C(=O)N[C@H](C(=O)OC1CCCC1)c1ccccc1)[C@H](O)C(=O)NO" was 99.1

Record "COc1cc2ncnc(Nc3ccc(F)c(Cl)c3)c2cc1OCCCN1CCOCC1" , field normalised viability: 96.9

###

Tested on: HDQ-P1
experiment notes: normalised response (% of control), CellTiter-Glo; higher = more viable cells (100 = DMSO, 0 = benzethonium chloride kill control)
experimental parameters: incubation time: 72 h
Classify as follows. Reported normalised response greater than or equal to 80%: true (1). Reported normalised response below: false (0).

Previously resolved entries follow.
- molecule: "Nc1cc(C(F)(F)F)c(-c2cc(N3CCOCC3)nc(N3CCOCC3)n2)cn1 [Buparlisib] (10000 nM)"
  group label: "false (0)"
- molecule: "O=C(Nc1ccncc1)C(=O)c1cn(Cc2ccc(Cl)cc2)c2ccccc12 [Indibulin] (10000 nM)"
  group label: "false (0)"
- molecule: "C=C1C[C@@H]2[C@H](CC[C@]3(C)C(=O)CC[C@@H]23)[C@@]2(C)C=CC(=O)C=C12 [Exemestane] (10000 nM)"
  group label: "true (1)"
- molecule: "NC(=O)c1ccc(I)c([N+](=O)[O-])c1 [Iniparib] (10000 nM)"
  group label: "true (1)"

Could you now look at the following molecule, please?
Can CNC(=O)c1cccc(-c2ccc3c(N4CCOC[C@@H]4C)nc(N4CCOC[C@@H]4C)nc3n2)c1 [AZD2014] (10000 nM) be said to have normalised response at or above 80%?
false (0)

###

Test system: CAL-120
experimental parameters: 72 h
Labelling field: enter condition met if recorded EC50, CellTiter-Glo is less than 8 µM. Enter condition not met if it equals or exceeds that cut-off.

- molecule: "O=C(/C=C/c1cccc(S(=O)(=O)Nc2ccccc2)c1)NO [Belinostat]"
  group label: "condition met"
- molecule: "CNC(=O)c1cc(Oc2ccc(NC(=O)Nc3ccc(Cl)c(C(F)(F)F)c3)c(F)c2)ccn1 [Regorafenib]"
  group label: "condition not met"
- molecule: "COc1cc(O)c2c(c1)/C=C/C[C@H](O)[C@H](O)C(=O)/C=C\\C[C@H](C)OC2=O [(5Z)-7-Oxozeaenol]"
  group label: "condition met"
- molecule: "CCOC(=O)CCNc1cc(N2CCc3ccccc3CC2)nc(-c2ccccn2)n1 [GSK-J4]"
  group label: "condition not met"
- molecule: "O=C(Nc1cccnc1)N1CCC(Cc2cccc(Oc3ccc(C(F)(F)F)cn3)c2)CC1 [PF-3845]"
  group label: "condition not met"

Report whether reported EC50, CellTiter-Glo is lower than 8 µM (strictly) for Cc1cc(Nc2cc(CN3CCOCC3)c3nc(C)c(Cc4ccc(Cl)cc4F)n3n2)n[nH]1 [Gandotinib]
condition met

Threshold test, EC50, CellTiter-Glo < 8 µM: CO[C@H]1C[C@@H]2CC[C@@H](C)[C@@](O)(O2)C(=O)C(=O)N2CCCC[C@H]2C(=O)O[C@H]([C@H](C)C[C@@H]2CC[C@@H](OP(C)(C)=O)[C@H](OC)C2)CC(=O)[C@H](C)/C=C(\C)[C@@H](O)[C@@H](OC)C(=O)[C@H](C)C[C@H](C)/C=C/C=C/C=C/1C [Ridaforolimus]
condition met

###

System: MDA-MB-468
experiment notes: normalised response (% of control), CellTiter-Glo; higher = more viable cells (100 = DMSO, 0 = benzethonium chloride kill control)
experimental parameters: incubation time: 72 h
Entries and their normalised response values follow.
Return type: number; implicit unit %.

- compound: "CCc1c2c(nc3ccc(OC(=O)N4CCC(N5CCCCC5)CC4)cc13)-c1cc3c(c(=O)n1C2)COC(=O)[C@]3(O)CC [Irinotecan] (10000 nM)"
  readout units: "%"
  normalised response: 23.2

Here's the next entry for you.
Per the record, COCC1(CO)C(=O)C2CCN1CC2 (stereo not drawn) [Prima-1 Met] (10000 nM) has normalised response of 91.3

###

Tested on: MFM-223
experiment notes: normalised viability (% of control), CellTiter-Blue; higher = more viable cells (about 100 = DMSO control)
experimental parameters: 1000 nM; incubation time: 72 h
Each record is given T if its reported normalised viability is strictly below 60%. Records at or above 60% are given F.

- compound: "O=C(Nc1ccncc1)C(=O)c1cn(Cc2ccc(Cl)cc2)c2ccccc12 [Indibulin]"
  group label: "F"

Lab log: compare recorded normalised viability with 60%; is it strictly lower for O=C(/C=C/c1cccc(S(=O)(=O)Nc2ccccc2)c1)NO [Belinostat] ?
T

# check: normalised viability < 60% for c1ccc2c(CCNc3ccc(Nc4ccncc4)cc3)c[nH]c2c1 [Serdemetan]
F

Given "Cc1cc(Nc2cc(CN3CCOCC3)c3nc(C)c(Cc4ccc(Cl)cc4F)n3n2)n[nH]1" , is recorded normalised viability strictly lower than 60%?
T

In the record for Cc1ccc(NC(=O)c2ccc(CN3CCN(C)CC3)cc2)cc1Nc1nc(-c2cccnc2)cs1 [Masitinib] , is normalised viability less than 60%?
F

Does the reported normalised viability of COCC[n+]1c2c(n(Cc3cnccn3)c1C)C(=O)c1ccccc1C2=O [YM155] stay below 60%?
T

I wonder whether "N#Cc1ccc(COC[C@H]2O[C@@H](n3c(NCc4ccc(Cl)c(Cl)c4)nc4c(N)ncnc43)[C@H](O)[C@@H]2O)cc1" has normalised viability below 60%. Can you tell?
F

src = the supplement of paper PMC4862054
